system: SF-295 (glioblastoma/human); assay: In vitro cytotoxicity (MTT cell survival), SF-295; format: cell-based; details: Homo sapiens, SF-295, 96 h exposure
reportedMetric: pIC50
In plain terms, pIC50 is the concentration in mol/L turned into minus its base-10 logarithm.

# compound, pIC50
rows = [
    ("COC(=O)C(C(C)OC)N(C)C(=O)C1(N(O)C(=O)/C=C/C=C/C=C/C=C\\CNC(=O)C(C)(C)C(O)\\C(C)=C/C=C\\C=C\\Cc2cnco2)COCO1 (centres unmarked) [Compound 1]", 4.57),
]

Read the next record carefully.
Request: Tell us which pIC50 value is on record for COC(=O)C(C(C)OC)N(C)C(=O)C1(N(O)C(=O)/C=C/C=C/C=C/C=C\CNC(=O)C(C)(C)C(O)\C(C)=C/C=C\C=C\Cc2cnc(C)o2)COCO1 (centres unmarked) [Compound 2]
Result: 4.76
